# System Tested: T1, ARHGAP21, Q5T5U3
# T1 sequence (Q5T5U3 45-169, limits assumed, looked up): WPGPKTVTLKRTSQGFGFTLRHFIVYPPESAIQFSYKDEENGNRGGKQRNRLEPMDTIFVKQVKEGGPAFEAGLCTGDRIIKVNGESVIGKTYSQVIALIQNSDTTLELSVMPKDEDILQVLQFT
# Assay Comment: holdup assay
# Set-up: key: below the threshold = too weak to quantify, mostly under pKd 3.1 to 4
# Measurement Context: plain residues with an end cap or a label only (N-terminal biotin on a linker: ado-ado)
Observed Property: pKd
Answers are plain numbers.

# annotated cases, reported pKd shown
binder="RHGSCVETSL [TMEM151B, Q8IW70]" experimental_value=4.17
binder="QHKTQLQTLI [BPIFA2, Q96DR5]" experimental_value=4.01
binder="PRAEAEDSFL [PDGFRB, P09619]" experimental_value=4
binder="TSQESEDTYL [TBC1D10A, Q9BXI6]" experimental_value=4.45
binder="DDPSTAETVL [ABCA7, Q8IZY2]" experimental_value=3.8
binder="CLREWCDAFL [BANF1, O75531]" experimental_value=4.41
binder="DDENIRTSDV [PLEKHA2, Q9HB19]" experimental_value=4.37
binder="MLSKQSESAI [FLVCR1, Q9Y5Y0]" experimental_value=4.1

For each of the binders below, state pKd.
1. PEYLGLDVPV [ERBB2, P04626]
2. QGLAERISVL [PRKD2, Q9BZL6]
3. EKKTLIGIKL [GOT1L1, Q8NHS2]
4. PPYRHRNTVV [ERBB4, Q15303]
5. LPHGHSTTRV [NLGN4X, Q8N0W4]
6. PKRSFIESNV [TANC1, Q9C0D5]

Reply:
[4.12, 3.93, 4.09, 4.08, 3.73, 3.85]

Reference for the values: paper PMC9482650
